meta.source: PubChem BioAssay AID1996

condition-set: buffer; pH 7.4; 200.0 µM
Parameter solubility kinetic: see the listing below.
Just the number please, in µg/mL, no unit attached.

Observe how each entry below is paired with its result.
{"compound": "CC(NC(=O)c1ccccc1)C(=O)NC1CCCc2ccccc21 (configuration not stated)", "solubility kinetic / µg/mL": 14.7}
{"compound": "CCc1c(C)nc(N)c(C#N)c1-c1ccccc1", "solubility kinetic / µg/mL": 0.3}
{"compound": "CCCNC(=O)c1oc2ccc3c(c2c1C)C=CC(C)(C)O3", "solubility kinetic / µg/mL": 14.2}
{"compound": "Br.Cc1ccnc(Nc2nc(-c3ccccc3)cs2)c1", "solubility kinetic / µg/mL": 0.4}
{"compound": "COc1ccc2[nH]c(=O)c(CNc3ccccc3C)cc2c1", "solubility kinetic / µg/mL": 27.6}

Problem: Look up solubility kinetic: `O=C(COC(=O)c1ccco1)Nc1cccc(S(=O)(=O)N2CCCCC2)c1`
Result: 54.5

Problem: `COc1ccc(OCC(=O)NCCNC(=O)c2cccnc2)cc1` , same question.
Result: 47.8
